Where these numbers come from: paper PMC4336329

# Experimental Target: human ether-à-go-go-related gene (hERG) potassium channel (human, UniProt Q12809);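 note: peak tail current of the secondary pulse compared with the same well before compound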
# Sequence (Q12809 whole entry, looked up): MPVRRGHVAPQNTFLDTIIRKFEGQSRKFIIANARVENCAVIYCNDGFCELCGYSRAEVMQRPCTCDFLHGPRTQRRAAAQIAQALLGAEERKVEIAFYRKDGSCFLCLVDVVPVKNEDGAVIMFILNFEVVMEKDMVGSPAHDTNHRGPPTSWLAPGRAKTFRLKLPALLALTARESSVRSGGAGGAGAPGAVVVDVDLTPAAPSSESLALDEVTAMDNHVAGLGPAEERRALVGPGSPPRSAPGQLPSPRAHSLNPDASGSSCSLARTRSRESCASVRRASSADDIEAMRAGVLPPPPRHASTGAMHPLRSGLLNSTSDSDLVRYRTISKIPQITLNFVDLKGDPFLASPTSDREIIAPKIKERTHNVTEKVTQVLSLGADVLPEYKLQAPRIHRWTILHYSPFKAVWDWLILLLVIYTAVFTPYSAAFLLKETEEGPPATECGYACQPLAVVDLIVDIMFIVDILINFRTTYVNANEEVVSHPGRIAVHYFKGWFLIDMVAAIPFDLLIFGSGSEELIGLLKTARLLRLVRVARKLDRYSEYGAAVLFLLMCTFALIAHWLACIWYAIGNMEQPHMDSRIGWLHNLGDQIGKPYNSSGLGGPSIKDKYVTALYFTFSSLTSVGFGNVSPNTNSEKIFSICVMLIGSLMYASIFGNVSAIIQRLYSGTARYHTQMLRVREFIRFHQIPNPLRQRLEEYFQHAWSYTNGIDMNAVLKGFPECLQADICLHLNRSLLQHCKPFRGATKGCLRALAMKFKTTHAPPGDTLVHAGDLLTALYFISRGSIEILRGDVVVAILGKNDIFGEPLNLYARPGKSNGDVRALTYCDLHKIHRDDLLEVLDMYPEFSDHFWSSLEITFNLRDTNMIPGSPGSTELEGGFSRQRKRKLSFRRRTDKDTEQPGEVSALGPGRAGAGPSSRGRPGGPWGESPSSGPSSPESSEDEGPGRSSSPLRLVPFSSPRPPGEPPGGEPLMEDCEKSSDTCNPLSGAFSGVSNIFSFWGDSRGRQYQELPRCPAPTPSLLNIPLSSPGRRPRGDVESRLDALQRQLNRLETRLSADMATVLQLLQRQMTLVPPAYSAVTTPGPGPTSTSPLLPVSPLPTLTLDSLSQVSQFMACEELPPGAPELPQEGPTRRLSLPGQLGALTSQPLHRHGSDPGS
# Procedure Text: primary screen, population patch clamp on CHO cells stably expressing hERG; higher = less effect of the substance
Screen size: about 310,000 compounds; about 14,000 (4.5%) showed an effect of 50% or more. Effects have a minus sign here. The sample holds strong results, similar compounds and a random draw of the others, so the mix is not that of the screen.
# hERG current change (%, negative = inhibition) at 10uM values compiled below
Readout Label: hERG current change (%, negative = inhibition) at 10uM (%)

Compound	Assay Result
Cc1cc(C)n(-c2ccc(NC(=O)C3CCN(Cc4ccc(C)o4)CC3)cc2)n1	-16.6
Cc1c(CCOC(=O)CC23CC4CC(CC(C)(C4)C2)C3)sc[n+]1Cc1ccc([N+](=O)[O-])cc1.[Br-]	-87.8
CC(NC(=O)c1cc(S(=O)(=O)N2CCOCC2)ccc1F)c1ccc(-n2ccnc2)cc1 (stereo not drawn)	-72.2
Cc1ccc(C(=O)NC(C)c2ccccc2)cc1S(=O)(=O)N1CCOCC1 (stereo not drawn)	-1.39
CC[C@H]1C2C[C@H]3[C@@H]4N(C)c5ccccc5C45C[C@H](C2[C@H]5O)N3[C@@H]1O (stereo partly drawn)	-43.8
CC(C)C(=O)Nc1c(-c2ccc(Cl)cc2)c(=O)c2ccccc2n1C	20.9
